// provenance: PubChem BioAssay (NCI)

Test system: TK-10 renal
assay-details: NCI-60 one-dose screen, 48 h (100 = growth as untreated, 0 = no growth, -100 = all killed)
setup-conditions: 10 µM unless noted
Compounds without any hit were thinned out: in the full panel of roughly 83,000, 20% have a hit.
growth for assorted compounds
Write the value in % as a bare number.

>  <compound>
CCn1cc(C(=O)O)c(=O)c2cc(F)c(N3CCN(CC(=O)Nc4ccc(C(C)=O)cc4)CC3)cc21

>  <val>
89.3

$$$$
>  <compound>
CCCCNc1cc(C(=O)O)cc(S(N)(=O)=O)c1Oc1ccccc1

>  <val>
104

$$$$
>  <compound>
CCOC(=O)C(C)(CSSCC(C)(NC(=O)c1ccc2ccccc2c1)C(=O)OCC)NC(=O)c1ccc2ccccc2c1 (configuration not stated)

>  <val>
103

$$$$
>  <compound>
NC(CCCC(N)C(=O)c1ccccc1)C(=O)O (configuration not stated)

>  <val>
86.7

$$$$
>  <compound>
CCCc1nn2c(CCC(=O)c3nc4ccc([N+](=O)[O-])cc4[nH]3)nnc2s1

>  <val>
133

$$$$

// lookup growth for CC(C)(C)NCC(O)COc1c(Br)c(Br)c(Br)c2c1OC(C)(C)C2 (configuration not stated)
-77.8

I would be grateful if you could share the reported growth for COC(=O)c1oc2c(C(=O)/C=C/c3ccc(OC)cc3)c(OCCN3CCOCC3)ccc2c1C .
25.4

Quick check: growth of COc1ccc2c(-c3ccc(F)cc3)c(C#N)c(=NC(C)=O)oc2c1 ?
78.1

Need growth, item COC(=O)CCCNS(=O)(=O)c1cc(C(=O)Nc2ccc(NC(=O)c3cc(S(=O)(=O)NCCCC(=O)OC)c(O)c(O)c3O)cc2)c(O)c(O)c1O
94.9

Endpoint output: growth of CN(C)c1ccc(/C=N/N=C(N)N)cc1 . Value?
106

Request the reported growth associated with CN1C(=O)C2(SCC(C(=O)NCC(=O)OC(C)(C)C)N2C(=O)C2CCCCC2)c2ccccc21 (configuration not stated)
103

* * *

Tested on: SK-OV-3 ovarian
assay-details: NCI-60 one-dose screen, 48 h (100 = growth as untreated, 0 = no growth, -100 = all killed)
setup-conditions: 10 µM unless noted
Compounds without any hit were thinned out: in the full panel of roughly 83,000, 20% have a hit. The source made the active and inactive calls. How the source made its calls: active means growth percent below 10; inactive means the rest.
experimental-endpoint: growth

The following compounds have reported results that may help.
>  <compound>
O=C(Cn1c2ccccc2c2ccncc21)N/N=C\c1ccc2ccccc2c1

>  <measured-target>
SK-OV-3 ovarian

>  <experimental-endpoint>
growth

>  <val>
36% (inactive)

$$$$
>  <compound>
CC(CN(C)C)CN1c2ccccc2CCc2ccccc21 (stereo unspecified)

>  <measured-target>
SK-OV-3 ovarian

>  <experimental-endpoint>
growth

>  <val>
95% (inactive)

$$$$
>  <compound>
Nc1ccc(S(=O)(=O)Nc2ccnn2-c2ccccc2)cc1

>  <measured-target>
SK-OV-3 ovarian

>  <experimental-endpoint>
growth

>  <val>
103% (inactive)

$$$$
>  <compound>
COc1cc(-c2nc(N)n(CC(=O)Nc3ccc(/C(C)=N\O)cc3)n2)cc(OC)c1OC

>  <measured-target>
SK-OV-3 ovarian

>  <experimental-endpoint>
growth

>  <val>
87.9% (inactive)

$$$$

Need growth of CC1CCC(C(C)C)C(NN)C1 (stereo unspecified) , thanks.
91.8% (inactive)

Which measured growth value corresponds to CCC1S/C(=N\N=C(/C)c2ccco2)N(c2ccccc2)C1=O (stereo unspecified) ?
135% (inactive)

What value of measured growth is listed for CS(=O)(=O)Nc1cccc(-c2ccc3ncnc(Nc4cncc(Cl)c4)c3c2)c1 ?
-7.86% (active)

Tell me the measured growth of NC(=NCCCOc1ccc(F)cc1)Nc1ccc(Cl)c(Cl)c1 , please.
99.8% (inactive)

Which growth is listed for O=c1cc(Cl)[nH]c(=O)[nH]1 ?
85.2% (inactive)

Find the recorded growth belonging to CC[C@H]1[C@@H]2C=C[C@@H]3[C@H]4C/C=C\C(=O)NCCC[C@@H]5NC(=O)/C(=C(O)/C=C/[C@@H]4C[C@@H]3[C@H]2C[C@H]1C)C5=O and report it.
1.98% (active)

Need growth, item CC(CCC(=O)O)[C@H]1CCC2C3C(=O)C[C@@H]4CC(=O)CC[C@]4(C)C3CC(=O)[C@@]21C (stereo partly specified)
106% (inactive)

* * *

Measured growth accompanies every entry in the list below.
Tested on: NCI/ADR-RES ovarian
assay-details: NCI-60 one-dose screen, 48 h (100 = growth as untreated, 0 = no growth, -100 = all killed)
setup-conditions: 10 µM unless noted
The panel holds about 83,000 compounds, 20% with a hit somewhere; the sample as a whole holds those more often.
Quick reminder: number only, in %, skip the unit.

Return reported growth; argument: Cc1cn(C2CC(N=[N+]=[N-])C(COP(=O)(O)OP(=O)(O)OP(=O)(O)O)O2)c(=O)[nH]c1=O (centres undefined)
111

Please look up its growth: Clc1ccc2c(NCCNc3nc(Cl)nc4ccccc34)ccnc2c1
38.5

Item under review: COc1cc2ncnc(Oc3ccc(NC(=O)Nc4ccc(C5(C#N)CCCC5)cc4)c4ccccc34)c2cc1OC . Reported growth?
72.2

I am curious: what growth value has been reported for Cc1cccc(Cc2cnc(NC(=O)CCc3ccc(C)o3)s2)c1 ?
17.2

What growth value was documented for this compound, C=C1C(=O)O[C@H]2[C@H]1CC/C(COC(=O)c1ccc(Br)cc1)=C\CC[C@@]1(C)O[C@@H]21 ?
24.7

Return reported growth; argument: CC(C)(C)C(=O)Nc1nc2c(s1)CCc1ccn(S(=O)(=O)c3ccccc3)c1-2
85.7

Entry COc1ccc(-c2ccc(NC(=O)Nc3cccc(C(F)(F)F)c3)c(C)n2)cc1 has what growth?
53.2

Quick check: growth of OCc1cn(-c2ccc(Cl)cc2)nc1-c1ccc(O)cc1 ?
94.7

Any idea what growth was measured for COC(=O)c1oc2c(C(C)=O)c(OCCN3CCCCC3)ccc2c1C ?
95.5

Reported growth for CC(C)(C)NC(C1=CC(C)(C)c2ccccc2C1=O)c1ccccc1 (centres undefined) : what is it?
-43.3

For the compound shown here, CS(=O)(=O)OCC(COS(C)(=O)=O)C(c1ccccc1)c1ccccc1 , give the reported growth.
99

* * *

Property: growth; scope: individual compounds
Test system: OVCAR-8 ovarian
assay-details: NCI-60 one-dose screen, 48 h (100 = growth as untreated, 0 = no growth, -100 = all killed)
setup-conditions: 10 µM unless noted
Compounds without any hit were thinned out: in the full panel of roughly 83,000, 20% have a hit. Calls of active or inactive are those of the source. The calls were made as follows: active = growth percent below 10; inactive = the rest.

>  <compound>
O=C(NCCNc1nccc(-c2c(-c3cccc(O)c3)nc3sccn23)n1)Nc1cccc(C(F)(F)F)c1

>  <growth>
41.2% (inactive)

$$$$
>  <compound>
O=C(N/N=C/c1ccccc1O)c1ccccc1O

>  <growth>
25.1% (inactive)

$$$$
>  <compound>
Cc1c(NC(=O)c2sc3nc4c(cc3c2N)CN(Cc2ccccc2)CC4)cccc1C(F)(F)F

>  <growth>
63.1% (inactive)

$$$$

What value of measured growth is listed for CC(C)(CCN=C(N)Nc1ccccn1)c1ccc(C(F)(F)F)cc1 ?
15.7% (inactive)

* * *

System: TK-10 renal
assay-details: NCI-60 one-dose screen, 48 h
setup-conditions: 10 µM unless noted
The panel holds about 83,000 compounds, 20% with a hit somewhere; the sample as a whole holds those more often. Active and inactive are the calls of the source. Rule for the calls: active = growth percent below 10; inactive = the rest.
Mark one answer only. Choices: label 1 (active), label 0 (inactive)

Answered cases to consult:
>  <molecule>
C=C1C(=O)O[C@H]2[C@H]1CC/C(CNC(=O)/C1=C/CC[C@@]3(C)O[C@H]3[C@H]3OC(=O)C(=C)[C@@H]3CC1)=C\CC[C@@]1(C)O[C@@H]21

>  <assigned-label>
label 0

$$$$
>  <molecule>
CC(C)(C)NC(C1=CC(C)(C)c2ccccc2C1=O)c1ccccc1 (stereo unspecified)

>  <assigned-label>
label 1

$$$$
>  <molecule>
CC/C(=C(\CC)c1ccc(OCCN(CC)CC)cc1)c1ccc(OCCN(CC)CC)cc1

>  <assigned-label>
label 0

$$$$
>  <molecule>
CC(C)CNCC(=O)Nc1ccc(Cc2ccc(NC(=O)CNCC(C)C)cc2)cc1

>  <assigned-label>
label 0

$$$$
>  <molecule>
CN(C)c1ccc(/C=N/n2c(-c3cc(F)c(Cl)cc3Cl)nn(CN3CCOCC3)c2=S)cc1

>  <assigned-label>
label 0

$$$$

Could you please tell me the result logged for CC(C)(C)C(=O)Nc1nc2c(s1)CCc1ccn(S(=O)(=O)c3ccccc3)c1-2 in this assay?
label 0

Hi team, can someone confirm the assay call for COc1ccc(/C=C/C(=O)c2ccc(Oc3ncnc4ccccc34)cc2)cc1OC ?
label 0

* * *

System: BT-549 breast
assay-details: NCI-60 one-dose screen, 48 h (100 = growth as untreated, 0 = no growth, -100 = all killed)
setup-conditions: 10 µM unless noted
About 83,000 compounds went through this panel and 20% of them were active in at least one assay; those are over-represented in the sample as a whole. Activity calls are given as the source filed them. How the source made its calls: active means growth percent below 10; inactive means the rest.
experimental-endpoint: growth

Below, 2 compounds whose answers are already recorded.
>  <smiles-entry>
COc1ccc(/C(Cl)=N/N=C(\Cl)c2cc(OC)c(OC)c(OC)c2)cc1OC(C)=O

>  <measured-target>
BT-549 breast

>  <growth>
96.1% (inactive)

$$$$
>  <smiles-entry>
Cc1cc2c(cc1C)N(C(=O)CCl)CCN2C(=O)CCl

>  <measured-target>
BT-549 breast

>  <growth>
-28.3% (active)

$$$$

Give its growth value. Item: Cc1ccc(NC(=O)CN2CCOCC2)cc1Cl
77% (inactive)
